Quick reference for pIC50 among some compounds
- Target entity: Ba/F3 cells with EGFR WT (Homo sapiens)
- Sequence (P00533 25-1210): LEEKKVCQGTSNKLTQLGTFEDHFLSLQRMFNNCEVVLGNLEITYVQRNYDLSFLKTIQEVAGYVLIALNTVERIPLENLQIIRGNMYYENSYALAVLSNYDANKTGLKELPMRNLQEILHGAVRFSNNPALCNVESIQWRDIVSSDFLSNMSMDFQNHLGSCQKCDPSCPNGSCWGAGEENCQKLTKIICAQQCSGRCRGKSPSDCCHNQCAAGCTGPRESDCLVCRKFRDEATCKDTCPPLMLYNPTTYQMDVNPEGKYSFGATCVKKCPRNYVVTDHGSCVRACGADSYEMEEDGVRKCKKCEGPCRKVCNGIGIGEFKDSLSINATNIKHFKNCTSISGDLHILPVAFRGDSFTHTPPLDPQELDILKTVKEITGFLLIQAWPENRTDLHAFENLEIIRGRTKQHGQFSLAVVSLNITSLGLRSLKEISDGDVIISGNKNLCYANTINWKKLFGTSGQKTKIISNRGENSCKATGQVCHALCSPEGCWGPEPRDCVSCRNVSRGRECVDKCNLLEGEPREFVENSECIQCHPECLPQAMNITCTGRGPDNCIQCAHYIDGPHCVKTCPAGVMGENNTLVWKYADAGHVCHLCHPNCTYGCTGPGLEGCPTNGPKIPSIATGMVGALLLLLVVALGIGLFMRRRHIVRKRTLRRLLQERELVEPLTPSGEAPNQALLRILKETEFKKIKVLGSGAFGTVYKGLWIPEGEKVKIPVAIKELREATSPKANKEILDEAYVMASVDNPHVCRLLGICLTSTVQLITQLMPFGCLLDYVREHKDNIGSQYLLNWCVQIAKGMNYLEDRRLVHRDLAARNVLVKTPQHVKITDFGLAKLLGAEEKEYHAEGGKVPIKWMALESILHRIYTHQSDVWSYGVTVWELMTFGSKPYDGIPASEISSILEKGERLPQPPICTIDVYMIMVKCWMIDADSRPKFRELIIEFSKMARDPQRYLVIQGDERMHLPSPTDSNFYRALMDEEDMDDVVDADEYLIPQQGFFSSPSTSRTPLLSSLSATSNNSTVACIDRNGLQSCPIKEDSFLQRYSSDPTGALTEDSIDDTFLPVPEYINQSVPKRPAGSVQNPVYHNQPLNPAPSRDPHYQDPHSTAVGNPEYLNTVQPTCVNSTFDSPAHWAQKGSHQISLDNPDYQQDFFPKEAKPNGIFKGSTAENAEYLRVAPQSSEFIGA
- Assay comment: EGFR activity: Ba/F3 cell viability (CellTiter-Glo, 72 h), EGFR WT
- Setup conditions: read-out: BaF3 WT IC50
pIC50: −log10 of the molar value.

COc1c(Cl)cccc1Nc1c(-c2ccncc2OC[C@H]2CCCN2C(C)=O)[nH]c2c1C(=O)NCC2 [Compound 141b] :: < 6.00
C=CC(=O)N1CCOC[C@]1(C)C#Cc1cnccc1-c1[nH]c2c(c1Nc1cccc(F)c1OC)C(=O)NCC2 :: 6.00 to 7.00
CC#CC(=O)N1CC[C@@H]1COc1cnccc1-c1[nH]c2c(c1Nc1cccc(C(F)F)c1OC)C(=O)NCC2 :: 6.00 to 7.00
COc1c(Cl)cccc1Nc1c(-c2ccncc2OC[C@@H]2CCCN2S(C)(=O)=O)[nH]c2c1C(=O)NCC2 [Compound 142a] :: 6.00 to 7.00
C=CC(=O)N1[C@H](C)CC[C@H]1C#Cc1cnccc1-c1[nH]c2c(c1Nc1cccc(F)c1OC)C(=O)NCC2 :: > 7.00
COc1c(Cl)cccc1Nc1c(-c2ccncc2OC[C@]2(C)CCN2C(=O)/C=C/CN(C)C)[nH]c2c1C(=O)NCC2 :: 6.00 to 7.00

stdin: Which pIC50 value belongs to COc1c(Cl)cccc1Nc1c(-c2ccncc2OC[C@@H]2CCCN2C(C)=O)[nH]c2c1C(=O)NCC2 [Compound 141a] ?
stdout: < 6.00

====

- Target entity: Ba/F3 cells with EGFR exon 20 ASV Ins V769_D770 (Homo sapiens, UniProt P00533, INS769ASV)
- Sequence (P00533 with tags, fused parts or gaps INS769ASV): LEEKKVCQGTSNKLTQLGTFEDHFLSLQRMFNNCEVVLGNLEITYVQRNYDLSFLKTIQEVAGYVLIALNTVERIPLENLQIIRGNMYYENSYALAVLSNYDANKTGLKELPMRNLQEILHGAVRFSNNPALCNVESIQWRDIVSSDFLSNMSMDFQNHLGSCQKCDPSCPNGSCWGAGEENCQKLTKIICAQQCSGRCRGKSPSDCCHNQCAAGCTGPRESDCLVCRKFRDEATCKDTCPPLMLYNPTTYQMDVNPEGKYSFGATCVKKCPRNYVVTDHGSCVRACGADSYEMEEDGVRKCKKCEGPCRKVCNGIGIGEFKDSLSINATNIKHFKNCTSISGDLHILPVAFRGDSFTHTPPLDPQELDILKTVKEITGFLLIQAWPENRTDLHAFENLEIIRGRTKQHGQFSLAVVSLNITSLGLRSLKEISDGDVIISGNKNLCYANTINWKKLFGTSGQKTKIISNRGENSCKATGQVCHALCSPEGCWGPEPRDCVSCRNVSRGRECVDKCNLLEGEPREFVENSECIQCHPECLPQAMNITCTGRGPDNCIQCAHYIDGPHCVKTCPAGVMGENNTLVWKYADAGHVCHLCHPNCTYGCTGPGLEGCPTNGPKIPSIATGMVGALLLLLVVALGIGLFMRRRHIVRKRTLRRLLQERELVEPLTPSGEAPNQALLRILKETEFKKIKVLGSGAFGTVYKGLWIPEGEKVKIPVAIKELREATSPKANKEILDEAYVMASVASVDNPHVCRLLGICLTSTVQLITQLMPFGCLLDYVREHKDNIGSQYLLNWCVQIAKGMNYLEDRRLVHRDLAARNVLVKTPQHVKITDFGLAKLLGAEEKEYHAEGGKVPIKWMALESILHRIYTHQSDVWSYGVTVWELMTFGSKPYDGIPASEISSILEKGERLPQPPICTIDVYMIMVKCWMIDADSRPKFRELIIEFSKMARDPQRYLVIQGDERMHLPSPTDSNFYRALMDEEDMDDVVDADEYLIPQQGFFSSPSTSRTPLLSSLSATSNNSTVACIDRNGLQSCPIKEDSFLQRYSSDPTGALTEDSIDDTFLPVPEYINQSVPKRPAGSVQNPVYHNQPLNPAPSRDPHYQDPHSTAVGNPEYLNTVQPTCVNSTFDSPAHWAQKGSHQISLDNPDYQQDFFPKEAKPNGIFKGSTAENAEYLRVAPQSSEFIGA
- Assay comment: EGFR activity: Ba/F3 cell viability (CellTiter-Glo, 72 h), EGFR exon 20 ASV insertion
- Setup conditions: EGFR exon 20 ASV Ins V769_D770, cell viability, read-out: BaF3 ASV IC50
Recorded IC50, one value per entry.

// below: answered compounds
Cc1c(F)cccc1Nc1c(-c2ccncc2C#CC2(C)COC2)[nH]c2c1C(=O)NCC2 :: 100 to 1000 nM
COc1c(Cl)cccc1Nc1c(-c2ccncc2C#C[C@@H]2CCN2C(=O)/C=C/CN(C)C)[nH]c2c1C(=O)NCC2 :: < 100 nM
CC#CC(=O)N1CC[C@@H]1COc1cnccc1-c1[nH]c2c(c1Nc1cc(F)cc(Cl)c1OC)C(=O)NCC2 :: < 100 nM
COc1c(F)cccc1Nc1c(-c2ccncc2C#C[C@@H]2CCC[C@@H]2OC)[nH]c2c1C(=O)NCC2 :: 100 to 1000 nM
COc1cccnc1C#Cc1cnccc1-c1[nH]c2c(c1Nc1cccc(F)c1C)C(=O)NCC2 :: 100 to 1000 nM

stdin: Please give the measured IC50 for this compound: C=CC(=O)N1CC(C)(C)C[C@@H]1C#Cc1cnccc1-c1[nH]c2c(c1Nc1cccc(Cl)c1OC)C(=O)NCC2
stdout: < 100 nM

stdin: Can you share its IC50? I mean this compound: C=CC(=O)N1[C@H](COc2cnccc2-c2[nH]c3c(c2Nc2cccc(Cl)c2OC)C(=O)NCC3)C[C@H]1C
stdout: < 100 nM

====

- Target entity: Ba/F3 cells with EGFR exon 20 ASV Ins V769_D770 (Homo sapiens, UniProt P00533, INS769ASV)
- Construct: expressed in transfected cells; host or cells: Ba/F3 (murine pro-B cells), retroviral transduction, puromycin selection, IL3-independent pool
- Assay comment: EGFR activity: Ba/F3 cell viability (CellTiter-Glo, 72 h), EGFR exon 20 ASV insertion
- Assay type: cell-based
- Setup conditions: EGFR exon 20 ASV Ins V769_D770, cell viability, read-out: BaF3 ASV IC50
pIC50: −log10 of the molar value.
Measured property: pIC50

Below, 8 compounds whose answers are already recorded.
COc1c(Cl)cccc1Nc1c(-c2ccncc2OC[C@]2(C)CCN2C(=O)/C=C/CN(C)C)[nH]c2c1C(=O)NCC2 [compound 424] :: > 7.00
CC#CC(=O)N1CCOC[C@H]1COc1cnccc1-c1[nH]c2c(c1Nc1cccc(Cl)c1OC)C(=O)NCC2 [compound 429] :: 6.00 to 7.00
CC#CC(=O)N1CC[C@@H]1COc1cnccc1-c1[nH]c2c(c1Nc1cccc(F)c1F)C(=O)NCC2 [compound 350] :: > 7.00
C=CC(=O)NC1(C#Cc2cnccc2-c2[nH]c3c(c2Nc2cccc(Cl)c2OC)C(=O)NCC3)CCOCC1 [compound 382] :: > 7.00
CC#CC(=O)N1CCOC[C@@H]1COc1cnccc1-c1[nH]c2c(c1Nc1cccc(F)c1OC)C(=O)NCC2 [compound 293] :: < 6.00
CC#CC(=O)N1CC[C@@H]1COc1cnccc1-c1[nH]c2c(c1Nc1cccc(F)c1Cl)C(=O)NCC2 [compound 406] :: > 7.00
COc1c(Cl)cccc1Nc1c(-c2ccncc2C#CC2(NC(=O)/C=C/CN(C)C)COC2)[nH]c2c1C(=O)NCC2 [compound 416] :: 6.00 to 7.00
COc1c(F)cccc1Nc1c(-c2ccncc2C#C[C@@H]2CCN2C(=O)/C=C/CN(C)C)[nH]c2c1C(=O)NCC2 [compound 594] :: > 7.00

stdin: Quick one: pIC50 of CC#CC(=O)N1CC[C@@H]1COc1cnccc1-c1[nH]c2c(c1Nc1cc(F)cc(F)c1OC)C(=O)NCC2 [compound 347] ?
stdout: > 7.00

stdin: Given COc1c(Cl)cccc1Nc1c(-c2ccncc2C#CC2(C)COC2)[nH]c2c1C(=O)NCC2 [compound 490] , state its recorded pIC50.
stdout: 6.00 to 7.00
